Test: mitochondrial membrane potential change in A549 cells, profiling panel, cell-based, JC-1 fluorescence, basal, 24 h, 100 nL (AID 1138);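 note: A549 lung adenocarcinoma cells under basal conditions with no added stimulus; test concentration not given here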
Details: higher = more signal
Answer Not satisfied if z-score is under 0.08, and Satisfied if it is 0.08 or more.

CC(C)(C)OC(=O)CC[C@]1(C(N)=O)N=C(c2ccc(OCCCO)cc2)O[C@H]1c1ccccc1CN=[N+]=[N-]
Satisfied
NCCCC[C@@H]1NC(=O)[C@H]2C[C@@H](C(=O)NCc3ccc(F)cc3)[C@@H](c3cccc(OCCO)c3)N2C1=O
Not satisfied
Cc1ccc(S[C@]2(C(=O)NC3CC3)CC(=O)N(Cc3cc(C(F)(F)F)cc(C(F)(F)F)c3)[C@@H]2c2ccc(CO)cc2I)cc1
Not satisfied
[N-]=[N+]=NCc1ccccc1C[C@]1(C(=O)O)COC(c2ccc(OCCCO)cc2)=N1
Not satisfied
O=C1C2C=CC(C(O)c3cccc(O)c3)N(Nc3ccccc3F)C2C(=O)N1c1ccccc1 (stereo not drawn)
Not satisfied

Ask: Exam item: decide whether the reported z-score for CC(C)CNC(=O)[C@@H]1c2ccccc2C(=O)N(Cc2ccccc2Cl)[C@H]1c1ccc(CO)cc1 is at least 0.08.
Reply: Satisfied

Ask: Exam item: decide whether the reported z-score for CCN(CC)c1ccc(N2CC=CC34O[C@@H]5C=CCOC(=O)[C@@H]5[C@H]3C(=O)N(CCCO)[C@@H]4C2=O)cc1 (stereo partly drawn) is at least 0.08.
Reply: Not satisfied

----------
Test system: Inhibin beta A chain (activin A)
Test: INHBA (activin A) binders on microarrays, primary screen, biochemical, small-molecule microarray, 635 nm fluorescence scan (AID 1107);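 note: mouse activin A protein probed at 4.33 µg/mL on printed slides; score merges bound-protein fluorescence near 667 nm with spot signal-to-noise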
Conditions: small-molecule microarray binding, higher = more signal
measurement_label: composite z-score
Respond numerically, and do not add a unit to the figure.

COCCOC(=O)N1C(=O)[C@@]2(c3cc(C#CC4(O)CCCCCC4)ccc31)[C@H](c1ccc(OCCO)cc1)N1[C@H](c3ccccc3)[C@H](c3ccccc3)OC(=O)[C@H]1[C@@H]2C(=O)N1CCCCCCC1
1.74
COCCCNC(=O)[C@@H]1c2ccccc2C(=O)N(Cc2cc(C(F)(F)F)cc(C(F)(F)F)c2)[C@H]1c1ccc(CO)cc1
0.92
Cc1ccccc1C(O)C1C=CC2C(=O)N(c3ccccc3)C(=O)C2N1Nc1ccccc1F (configuration not stated)
1.04
COC(=O)C(CC#Cc1ccc2c(c1)[C@]1(C(=O)N2)[C@H](c2ccc(O)cc2)N2[C@H](c3ccccc3)[C@H](c3ccccc3)OC(=O)[C@H]2[C@@H]1C(=O)N1CCc2cc(OC)c(OC)cc2C1)C(=O)OC
-0.0531
C=C(COC)C(=O)CC[C@@H](OC(=O)c1cccnc1)c1cccc(OCCO)c1
1.37

Lookup result for CC(C)c1ccc(NN2C(C(O)C(C)C)C=CC3C(=O)N(c4ccccc4)C(=O)C32)cc1 (configuration not stated) ; measured composite z-score: 0.496

Lookup result for COc1ccc(CCNC(=O)[C@@]2(Sc3ccc(C)cc3)CC(=O)N(Cc3cc(C(F)(F)F)cc(C(F)(F)F)c3)[C@@H]2c2ccc(CO)cc2)cc1 ; measured composite z-score: -0.497

----------
Experiment: small-molecule microarray binders of probe aShh, primary screen, biochemical, biotinylated probe, 635/667 nm fluorescence (AID 1114);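 note: probe is biotin-labelled aShh protein from a stem cell growth factor screen; measures binding of labelled protein to compounds printed on the slide; score merges feature fluorescence at 667 nm with signal-to-noise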
Settings: higher = more signal
measurement_label: composite z-score
Respond numerically, and do not add a unit to the figure.

Lookup result for COC(=O)[C@@]1(Cc2ccc(F)cc2)[C@H]2c3cc(C(=O)N(C)C)n(CCn4cc([N+](=O)[O-])nc4C)c3C[C@H]2CN1C(=O)c1ccccc1 ; measured composite z-score: 0.631

----------
This section presents compounds with their documented z-score values.
Experiment: inhibitors of hydroxyurea-induced Chk1 phosphorylation, primary screen, imaging, HeLa, phospho-Chk1 antibody, percent positive cells (AID 1186)
Details: hydroxyurea-induced phospho-Chk1 immunofluorescence imaging, higher = more signal
Respond numerically, and do not add a unit to the figure.

C=C(COC)/C(=C/C[C@H](OC(=O)c1ccncc1)c1ccc(OCCO)cc1)c1cc(C(=O)OC)ccc1OC
0.203

Lookup result for N[C@@H](Cc1ccccc1)Cn1cc(C2(O)CCCCC2)nn1 ; measured z-score: 0.43

Lookup result for NC(=O)NCC#Cc1ccc2c(c1)[C@]1(C(=O)N2)[C@H](C(=O)N2CCCCCCC2)[C@H]2C(=O)O[C@H](c3ccccc3)[C@H](c3ccccc3)N2[C@@H]1c1ccc(O)cc1 ; measured z-score: 0.0378

Lookup result for COCC(=C=CC[C@@H](O)c1cccc(OCCO)c1)C[C@@H](O)COCc1ccccc1 ; measured z-score: -0.789

----------
Test: E. coli acrAB mutant growth effects, primary screen, E. coli filamentation inducers, strain DRC39, OD650, 24 h (AID 1178);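 note: growth measured as culture turbidity by optical density at 650 nm; test concentration not given here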
Details: higher = more signal, called active from +8 up or from −8 down
measurement_label: z-score
Respond numerically, and do not add a unit to the figure.

Solved cases (4 shown):
COCC1=C([C@H](O)CCc2ccccc2)[C@H](CO)n2c(=O)n(-c3ccccc3)c(=O)n2C1
1.19
CCOC(=O)C1=CC[C@@H](c2ccccc2)N(S(=O)(=O)C[Si](C)(C)C)[C@H]1c1ccccc1
-0.618
CC(C)C(=C=CC[C@@H](O)c1cccc(OCCO)c1)CCO
0.546
COCCOC(=O)N1C(=O)[C@@]2(c3cc(C#CCC(C(=O)OC)C(=O)OC)ccc31)[C@H](C(=O)N1CCc3cc(OC)c(OC)cc3C1)[C@H]1C(=O)O[C@H](c3ccccc3)[C@H](c3ccccc3)N1[C@@H]2c1ccc(O)cc1
0.992

Lookup result for CN(C)CCCNC(=O)[C@@H]1c2ccccc2C(=O)N(C2Cc3ccccc3C2)[C@H]1c1ccc(CO)cc1 ; measured z-score: 0.615

Lookup result for COCCOC(=O)N1C(=O)[C@@]2(c3cc(C#Cc4ccc(OC)cc4)ccc31)[C@H](c1ccc(OCCO)cc1)N1[C@H](c3ccccc3)[C@H](c3ccccc3)OC(=O)[C@H]1[C@@H]2C(=O)N1CCCCCCC1 ; measured z-score: 0.0117

Lookup result for COC(=O)[C@H](Cc1ccc(O)cc1)N1CC2=CCCC=C[C@@H]2[C@H]1[C@H](O)Cc1ccccc1 ; measured z-score: 1.34

Lookup result for CCC[C@@H]1[C@@H](Sc2ccccc2)[C@@H](C(=O)O)[C@H](c2ccc(C)cc2)N1S(=O)(=O)c1ccc(C)cc1 ; measured z-score: -0.008

Lookup result for O=C1C2C=CC(C(O)C(c3ccccc3)c3ccccc3)N(Nc3ccccc3)C2C(=O)N1c1ccccc1 (stereo not given) ; measured z-score: -0.615

Lookup result for CCOC(=O)C[C@H]1[C@H](OC(=O)c2cc3ccccc3oc2=O)[C@@H](NC(=O)C2CCCCC2)c2cc(OCCCO)ccc2N1C(=O)Cc1ccc(OC)cc1 ; measured z-score: -0.825

Lookup result for O=C(NCC(F)(F)F)[C@@H]1c2ccccc2C(=O)N(CC23CC4CC(CC(C4)C2)C3)[C@H]1c1ccc(CO)cc1 ; measured z-score: 1.05

----------
This section presents molecules with their documented composite z-score values.
Biological target: Follistatin (Homo sapiens)
Assay: follistatin binders on small-molecule microarrays, primary screen, biochemical, small-molecule microarray, 635/667 nm fluorescence (AID 1132)
Settings: FST binding, 635 nm fluorescence, higher = more signal
Respond numerically, and do not add a unit to the figure.

O=C1O[C@H](c2ccccc2)[C@H](c2ccccc2)N2[C@H]1[C@@H](C(=O)N1CCN(c3ncccn3)CC1)[C@]1(C(=O)Nc3ccccc31)[C@H]2c1ccc(O)cc1
0.889
C=CCOC(=O)[C@H]1[C@@H]2C(=O)O[C@@H](c3ccccc3)[C@@H](c3ccccc3)N2[C@@H](c2ccc(OCCOC(=O)[C@@H]3C[C@@H]4C(=O)N[C@@H](Cc5ccccc5)C(=O)N4[C@@H]3c3ccc(O)cc3)cc2)[C@]12C(=O)Nc1ccccc12
1.32

Lookup result for C=C(/C(=C/C[C@@H](OC(C)=O)c1ccccc1OCCO)c1cc(C(=O)OC)ccc1OC)C(C)C ; measured composite z-score: 0.425

Lookup result for [N-]=[N+]=NCc1ccccc1[C@H]1OC(c2ccc(OCCCO)cc2)=N[C@@]1(Cc1ccccc1)C(=O)N1CCOCC1 ; measured composite z-score: 0.25

----------
Assay: MM1S myeloma cell viability, profiling panel, resazurin fluorescence, basal, 24 h, PK04 Diversity Set (AID 1174);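 note: MM1S multiple myeloma cell line; test concentration not given here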
Conditions: higher = more signal, called active from +8 up or from −8 down
Answer Condition not met if z-score is under -0.5, and Condition met if it is -0.5 or more.

# example entries with known answers
CCCCC(=C=CC[C@@H](O)c1cccc(OCCO)c1)C[C@@H](O)COCc1ccccc1
Condition met
COc1ccc(C#Cc2ccc3c(c2)[C@]2(C(=O)N3)[C@H](c3ccc(OCCO)cc3)N3[C@H](c4ccccc4)[C@H](c4ccccc4)OC(=O)[C@H]3[C@@H]2C(=O)O)cc1
Condition met
C=C(/C(=C/C[C@@H](OC(C)=O)c1ccccc1OCCO)c1cc(C(=O)OC)ccc1OC)C(C)C
Condition met
C=CCC(OC(C)=O)[C@@H]1[C@@H](N(Cc2cc3ccccc3o2)C(=O)Cc2ccc(OC)cc2)c2cc(OCCCO)ccc2N1C(=O)Cc1ccc2ccccc2c1 (stereo not given in full)
Condition met
CCC(CC)C(O)C1C=CC2C(=O)N(C)C(=O)C2N1N1CCCCC1 (stereo not given)
Condition not met
C=CCOC(=O)[C@H]1[C@@H]2C(=O)O[C@@H](c3ccccc3)[C@@H](c3ccccc3)N2[C@@H](c2ccc(OCCOC(=O)[C@H]3C[C@H]4C(=O)NCC(=O)N4[C@H]3c3ccc(O)cc3)cc2)[C@]12C(=O)Nc1ccc(I)cc12
Condition met

Ask: Exam item: decide whether the reported z-score for CCCCC(O)C1C=CC2C(=O)NC(=O)C2N1Nc1ccc(Cl)cc1Cl (stereo not given) is at least -0.5.
Reply: Condition not met

Ask: Exam item: decide whether the reported z-score for COCCOC(=O)N1C(=O)[C@@]2(c3cc(C#CC4(O)CCCCCC4)ccc31)[C@H](C(=O)NC[C@H](O)c1ccccc1)[C@H]1C(=O)O[C@H](c3ccccc3)[C@H](c3ccccc3)N1[C@@H]2c1ccc(O)cc1 is at least -0.5.
Reply: Condition met

Ask: Exam item: decide whether the reported z-score for COc1ccc(C(O)C2C=CC3C(=O)N(C)C(=O)C3N2Nc2ccc([N+](=O)[O-])cc2[N+](=O)[O-])cc1OCc1ccccc1 (stereo not given) is at least -0.5.
Reply: Condition not met

Ask: Exam item: decide whether the reported z-score for CCCC[C@H]1OB(O)C[C@H]2C1=C(C)C[C@H]1C(=O)C=CC(=O)[C@H]12 is at least -0.5.
Reply: Condition not met
